target: recombinant human LTA4 hydrolase (rhLTA4H) (Homo sapiens); experiment: Recombinant human LTA4 hydrolase assay for LTA4 hydrolase inhibitor activity; conditions: Recombinant Human LTA4 Hydrolase Assay IC50 LTA4H, recombinant hLTA4H
Sequence (P09960 whole entry): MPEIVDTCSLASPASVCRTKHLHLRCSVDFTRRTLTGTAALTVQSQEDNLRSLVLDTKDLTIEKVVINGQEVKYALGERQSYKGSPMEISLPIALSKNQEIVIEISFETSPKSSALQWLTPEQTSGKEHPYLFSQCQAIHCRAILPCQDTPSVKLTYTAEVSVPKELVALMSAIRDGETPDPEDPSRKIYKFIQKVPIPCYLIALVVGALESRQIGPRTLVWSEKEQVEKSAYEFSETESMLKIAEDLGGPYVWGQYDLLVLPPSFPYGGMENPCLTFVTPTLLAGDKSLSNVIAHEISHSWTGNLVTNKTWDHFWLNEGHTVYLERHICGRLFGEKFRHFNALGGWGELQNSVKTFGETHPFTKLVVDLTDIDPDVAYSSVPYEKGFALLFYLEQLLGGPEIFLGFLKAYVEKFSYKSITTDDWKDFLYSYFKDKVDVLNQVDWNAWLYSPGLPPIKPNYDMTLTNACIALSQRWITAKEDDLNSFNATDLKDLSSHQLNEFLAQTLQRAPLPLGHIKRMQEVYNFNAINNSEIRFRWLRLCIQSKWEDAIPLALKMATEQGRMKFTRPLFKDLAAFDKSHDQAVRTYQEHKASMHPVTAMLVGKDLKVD
pIC50: −log10 of the molar value.
Each entry falls into one class according to its pIC50; the ranges are A = under 6, B = from 6 up to 7, C = 7 and over

Sort into band: NC(=O)C1CCN(CCOc2ccc(Cc3ccccc3)s2)CC1 [Example 369]
A

Another compound: NC(=O)C1CCN(CC2CCc3cc(Cc4ccccc4)ccc3O2)CC1 (stereo not drawn) [Example 293]
B

Another compound: Fc1ccc(Oc2ccc(OCCn3cnc4ncccc43)cc2)cc1 [354 B]
B

Another compound: Cc1cc(Cc2ccccc2)ccc1OCCN1CCCC1 [Example 117]
A

Another compound: Clc1ccccc1COc1ccc(OCCN2CCCC2)cc1 [Example 208]
A

Another compound: c1csc(Cc2ccc(OCCN3CCCC3)cc2)c1 [Example 133]
C

Another compound: c1ccc(Oc2ccc(OCCn3cnc4ncccc43)cc2)cc1 [348 B]
B

Another compound: NC(=O)N1CCN(CC2Cc3cc(Cc4ccccc4)ccc3O2)CC1 (stereo not drawn) [Example 337]
B

Another compound: COC(=O)CC1CC2CC1N(CCOc1ccc(Cc3ccccc3)cc1)C2 (stereo not drawn) [Example 307]
B

Another compound: CCOC(=O)C1C2CN(CCOc3ccc(Cc4ccccc4)cc3)CC21 (stereo not drawn) [Example 325]
A

Another compound: NC(=O)C1CCN(CCOc2ccc(Cc3cccc(F)c3)cc2)CC1 [Example 233]
B

Another compound: CN(CCCOc1ccc(Cc2ccccc2)cc1)CCC(=O)OCc1ccccc1 [Example 411]
A

Another compound: NC(=O)C1CCN(CC2Cc3cc(Oc4ccccc4)ccc3O2)CC1 (stereo not drawn) [Example 290]
B

Another compound: NC1CCN(CCOc2ccc(Cc3ccccc3)cc2)CC1 [Example 455]
C

Another compound: c1ccc(Cc2ccc(OCCN3CCCC3)cc2)nc1 [Example 138]
B

Another compound: CNC(=O)C1CCN(CC2Cc3cc(Cc4ccccc4)ccc3O2)CC1 (stereo not drawn) [Example 295]
B

Another compound: COC(=O)C1CN(CCCOc2ccc(Cc3ccccc3)cc2)CCC1=O (stereo not drawn) [Example 262]
B

Another compound: C=CCN(CCCCOc1ccc(Cc2ccccc2)cc1)CCC(=O)OCC [Example 410]
A

Another compound: O=C(O)C1CCN(CCOc2ccc(Cc3ccc(F)cc3)cc2)CC1 [Example 438]
A

Another compound: CCOC(=O)C1CCN(CC2Cc3cc(Cc4ccccc4)ccc3O2)CC1 (stereo not drawn) [Example 282]
A

Another compound: c1ccc(Oc2ccc(OCCCn3cnc4cccnc43)cc2)cc1 [350 A]
A

Another compound: O=C(Nc1ccccc1)OC[C@@H]1CCCN1CCOc1ccc(Cc2ccccc2)cc1 [Example 428]
B

Another compound: NNC(=O)C1CCN(CCOc2ccc(Cc3ccccc3)cc2)CC1 [Example 419]
C

Another compound: C#CC(CC(=O)OCC)NCCCOc1ccc(Cc2ccccc2)cc1 (stereo not drawn) [Example 407]
A

Another compound: c1ccc(Oc2ccc(OCCn3cnc4ccncc43)cc2)cc1 [349 A]
B

Another compound: c1ccc(Cc2ccc3c(c2)CC(Cn2nnc4ncccc42)O3)cc1 (stereo not drawn) [360 C]
A

Another compound: COC(=O)C1(O)CCN(CCOc2ccc(Cc3ccccc3)cc2)CC1 [Example 305]
C

Another compound: c1ccc(Cc2ccc(OCCn3ccc4ncnc-4c3)cc2)cc1 [340 A]
C

Another compound: CCOC(=O)CC1CCN(CCOc2ccc(Oc3ccccc3)cc2)CC1 [Example 300]
A

Origin of the recorded values: patent US6506876B1
